pIC50: −log10 of the molar value.
Let's go through some pIC50 measurements on UniProt Q13627 together.
REPORTED ENDPOINT: pIC50

Suppose we examine the compound "O=C(O[C@@H]1Cc2c(O)cc(O)cc2O[C@H]1c1cc(O)c(O)cc1F)c1cc(O)c(O)c(O)c1" ; what pIC50 value has been reported?
6.82

Suppose we examine the compound O=C(O[C@@H]1Cc2c(O)cc(O)cc2O[C@H]1c1ccc(O)c(O)c1)c1cc(O)c(O)c(O)c1F (racemic) ; what pIC50 value has been reported?
7.13

Suppose we examine the compound "O=C(O[C@@H]1Cc2c(O)cc(O)cc2O[C@H]1c1cc(O)c(O)cc1F)c1cc(O)c(O)c(O)c1F" ; what pIC50 value has been reported?
6.94

Suppose we examine the compound "O=C(O[C@@H]1Cc2c(O)cc(O)cc2O[C@H]1c1cc(O)c(O)c(O)c1)c1ccc(O)c(O)c1O" ; what pIC50 value has been reported?
6.97

Suppose we examine the compound "O=C(O[C@@H]1Cc2c(O)cc(O)cc2O[C@H]1c1cc(O)c(O)c(O)c1)c1cc(O)c(O)c(F)c1" ; what pIC50 value has been reported?
6.84

Suppose we examine the compound "O=C(O[C@@H]1Cc2c(O)cc(O)cc2O[C@H]1c1cc(O)c(O)c(O)c1)c1cc(O)c(O)cc1F" ; what pIC50 value has been reported?
6.97
